# System: TNFα production in LPS-stimulated human monocytes
# assayExplanation: Cot Monocyte TNFα Cell Based Assay
# conditionLabel: Homo sapiens, Monocyte, LPS-stimulated human monocytes, TNFα TR-FRET; read-out: EC50 TNF
# Procedure: Example 60: Cot Monocyte TNFα Cell Based Assay The cell suspension was then plated at a density of 5,000 cells/well onto black 384 well Greiner clear bottom plates. […] Cells were then spun out of the media and 5 ul of sample were taken and analyzed for total TNFα content using the TR-FRET Human TNFα detection system (CisBio). […]
pEC50: −log10 of the molar value.
Outcome: satisfied for pEC50 of at least 7; not satisfied for anything lower.

[[record]]
molecularstring = "[2H]c1c([C@@]([2H])(Nc2cc(Cl)c3ncc(C#N)c(NCC(C)(C)C)c3c2)c2c(F)cccc2Cl)nnn1C1(C)CC1"
category = "not satisfied"

[[record]]
molecularstring = "Cc1c(C#N)cccc1[C@H](Nc1cc(C#N)c2ncc(C#N)c(NCC(C)(C)C(F)(F)F)c2c1)c1cn(C23CC(C2)C3)nn1"
category = "satisfied"

[[record]]
molecularstring = "CC(C)(C)CNc1c(C#N)cnc2c(Cl)cc(N[C@@H](c3ccccc3)c3cn(C45CC(C4)C5)nn3)cc12"
category = "not satisfied"

[[record]]
molecularstring = "Cc1c(-c2ncco2)cccc1[C@H](Nc1cc(Cl)c2ncc(C#N)c(NCC(C)(C)C)c2c1)c1cn(C2(C(F)(F)F)CC2)nn1"
category = "not satisfied"

[[record]]
molecularstring = "CC(C)(C)CNc1c(C#N)cnc2c(-c3cncnc3)cc(N[C@H](c3cn(C4(C)CC4)nn3)c3ccccc3Cl)cc12"
category = "not satisfied"

[[record]]
molecularstring = "[2H][C@](Nc1cc(Cl)c2ncc(C#N)c(Nc3cccc(Cl)c3OC(F)(F)F)c2c1)(c1ccc(F)cc1)c1cn(C2CC2)nn1"
category = "not satisfied"

[[record]]
molecularstring = "Cc1c(C#N)cccc1[C@H](Nc1cc(Cl)c2ncc(C#N)c(NCC(C)(C)C)c2c1)c1cn(C2(C)CC2)nn1"
category = "satisfied"

[[record]]
molecularstring = "Cc1cc(C#N)ccc1[C@H](Nc1cc(Cl)c2ncc(C#N)c(NCC(C)(C)C)c2c1)c1cn(C2(C(F)(F)F)CC2)nn1"
category = "not satisfied"

[[record]]
molecularstring = "[2H][C@](Nc1cc(Cl)c2ncc(C#N)c(N[C@H](CC)c3ccccc3)c2c1)(c1ccc(F)cc1)c1cn(C2(C(F)F)CC2)nn1"
category = "not satisfied"

[[record]]
molecularstring = "Cc1c(C#N)cccc1[C@H](Nc1cc(Cl)c2ncc(C#N)c(NCC(C)(C)C(F)(F)F)c2c1)c1cn(C2(C(F)F)CC2)nn1"
category = "satisfied"

[[record]]
molecularstring = "CC(C)(C)CNc1c(C#N)cnc2c(C#N)cc(N[C@H](c3cn(Cc4c(F)cccc4F)nn3)c3ccccc3Cl)cc12"
category = "not satisfied"

[[record]]
molecularstring = "CC(C)(C)CNc1c(C#N)cnc2c(C#N)cc(N[C@H](c3cn(C(C)(C)C(N)=O)nn3)c3ccccc3Cl)cc12"
category = "not satisfied"

[[record]]
molecularstring = "[2H][C@@](Nc1cc(C#N)c2ncc(C#N)c(NCC(C)(C)C)c2c1)(c1cn(-c2cccnc2)nn1)c1ccccc1Cl"
category = "not satisfied"

[[record]]
molecularstring = "Cc1c(C#N)cccc1[C@H](Nc1cc(Cl)c2ncc(C#N)c(NCC(C)(C)C)c2c1)c1cn([C@@H](C)CF)nn1"
category = "satisfied"

[[record]]
molecularstring = "COc1c([C@@H](Nc2cc(C#N)c3ncc(C#N)c(NCC(C)(C)C)c3c2)c2ccccc2Cl)nnn1C1(C)CC1"
category = "not satisfied"

[[record]]
molecularstring = "[2H][C@](Nc1cc(S(C)(=O)=O)c2ncc(C#N)c(NCC(C)(C)C)c2c1)(c1ccc(F)cc1)c1cn(C2CC2)nn1"
category = "not satisfied"

[[record]]
molecularstring = "Cc1cc(F)ccc1[C@H](Nc1cc(Cl)c2ncc(C#N)c(NCC(C)(C)C)c2c1)c1cn(C2(C(F)F)CC2)nn1"
category = "not satisfied"

[[record]]
molecularstring = "[2H][C@](Nc1cc(Cl)c2ncc(C#N)c(Nc3cccc4ccccc34)c2c1)(c1ccc(F)cc1)c1cn(C2CC2)nn1"
category = "not satisfied"

